- Study System: Grb2 SH2 (UniProt P62993)
- Sequence (P62993 whole entry, looked up, the tested form may be a part): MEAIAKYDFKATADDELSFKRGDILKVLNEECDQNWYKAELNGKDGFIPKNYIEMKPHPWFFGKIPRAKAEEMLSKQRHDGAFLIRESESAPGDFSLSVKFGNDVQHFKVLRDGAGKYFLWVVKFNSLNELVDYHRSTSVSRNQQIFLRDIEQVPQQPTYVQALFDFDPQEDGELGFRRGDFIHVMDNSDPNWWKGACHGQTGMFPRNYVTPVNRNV
- Method Description: SH2 binding enrichment of the phosphorylated peptide, bacterial display (enrichment ratio); higher = better substrate or ligand; peptides without Tyr show the background;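 further: peptide library displayed on the E. coli surface as eCPX fusions, selected cells deep-sequenced, score is each peptide's frequency after selection divided by its frequency in the input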
Readout: SH2 binding enrichment
Enter a number only.

These solved cases illustrate the format of a correct answer.
Query Sequence: YEREQYADRTR [RBM4_Y355_A359T]
Study System: Grb2 SH2 (UniProt P62993)
Numeric Result: 0.878
//
Query Sequence: LLKKIYLMLDN [STAT1_Y203_M202I]
Study System: Grb2 SH2 (UniProt P62993)
Numeric Result: 0.899
//
Query Sequence: SAEEDYMADAK [KCNT1_Y876]
Study System: Grb2 SH2 (UniProt P62993)
Numeric Result: 0.901

Proceeding to the next sequence to report its SH2 binding enrichment.
Prompt line: // SH2 binding enrichment lookup, key: NFATLYLKIYH [PDE6B_Y219]
Response line: 0.887
